# System: GLP-1 receptor
# Test protocol: cell-based or functional assay
Ends that are not written are not given here.
Consider the following binders; for each one, report its GLP-1 Receptor Activation.

Inquiry: Output measured GLP-1 Receptor Activation for this item: HVEGTFTSDVSSYLEKQAAKEFIEWLVKGRG [Val^8-Lys^22-Glu^30-GLP-1(7-37)OH]
Reply text: 0.37 fold of GLP-1(7-37)OH

Inquiry: Return value of GLP-1 Receptor Activation for input HVEGTFTSDYSSYLEGQAAKEFIAWLVKGRG [Val^8-Tyr^16-GLP-1(7-37)OH] , no commentary.
Reply text: 1.18 fold of GLP-1(7-37)OH

Inquiry: Retrieve GLP-1 Receptor Activation measured for HVEGTFTSDVSSYLEGQAAKEFIAWLVKGEG [Val^8-Glu^36-GLP-1(7-37)OH] and print it.
Reply text: 0.11 fold of GLP-1(7-37)OH

Inquiry: Quote GLP-1 Receptor Activation reported for HVEGTFTSDLSSYLEGQAAEEFIAWLVKGRG [Val^8-Leu^16-Glu^26-GLP-1(7-37)OH] please.
Reply text: 0.23 fold of GLP-1(7-37)OH

Inquiry: Provide GLP-1 Receptor Activation value for the following binder: HVEGTFTSDVSSYLEEQAAKEFIAWLVKGR-NH2 [Val^8-Glu^22-GLP-1(7-36)NH2]
Reply text: 1 fold of GLP-1(7-37)OH

Inquiry: Please look at this binder and report its GLP-1 Receptor Activation: HVEGTFTSDVSSYLEHQAAKEFIAWLVKGRG [Val^8-His^22-GLP-1(7-37)OH]
Reply text: 0.14 fold of GLP-1(7-37)OH

Inquiry: Query GLP-1 Receptor Activation for HVEGTFTSDVSSYKEGQAAKEFIAWLVKGRG [Val^8-Lys^20-GLP-1(7-37)OH]
Reply text: 0.33 fold of GLP-1(7-37)OH

Inquiry: Give reported GLP-1 Receptor Activation value for HVEGTFTSDVSSYLEDQAAKEFIAWLVKGRG [Val^8-Asp^22-GLP-1(7-37)OH]
Reply text: 0.4 fold of GLP-1(7-37)OH

Inquiry: Find the measured GLP-1 Receptor Activation of HVEGTFTSDVSSYLEGQAAKEFISWLVKGRG [Val^8-Ser^30-GLP-1(7-37)OH] and report it.
Reply text: 0.19 fold of GLP-1(7-37)OH

Inquiry: Give a short answer stating reported GLP-1 Receptor Activation for HVEGTFTSDVSSYLEGQAAKEFIAWLVKGHG [Val^8-His^36-GLP-1(7-37)OH] .
Reply text: 0.22 fold of GLP-1(7-37)OH

Inquiry: Give the reported value of GLP-1 Receptor Activation for this record: HVEGTFTSDVSSYLESQAAKEFIAWLVKGRG [Val^8-Ser^22-GLP-1(7-37)OH]
Reply text: 0.5 fold of GLP-1(7-37)OH

Inquiry: // fetch GLP-1 Receptor Activation given entry HVEGTFTSDVSSYLEEQAAKEFIAWLVKGRG [Val^8-Glu^22-GLP-1(7-37)OH]
Reply text: 1.29 fold of GLP-1(7-37)OH

Inquiry: Please list GLP-1 Receptor Activation recorded for the binder HVEGTFTSDVSSYLEGQAAKEFIAWLVKHRG [Val^8-His^35-GLP-1(7-37)OH]
Reply text: 0.41 fold of GLP-1(7-37)OH

Inquiry: Note down GLP-1 Receptor Activation recorded for HVEGTFTSDVSSYLEGQAAKHFIAWLVKGRG [Val^8-His^27-GLP-1(7-37)OH]
Reply text: 0.37 fold of GLP-1(7-37)OH

Inquiry: Report measured GLP-1 Receptor Activation; entry is HVEGTFTSDVSSYLEGQKAKEFIAWLVKGRG [Val^8-Lys^24-GLP-1(7-37)OH]
Reply text: 0.02 fold of GLP-1(7-37)OH

Inquiry: Quote GLP-1 Receptor Activation reported for HVEGTFTSDVSSYLEGQAAKEFIAWLVEGRG [Val^8-Glu^34-GLP-1(7-37)OH] please.
Reply text: 0.17 fold of GLP-1(7-37)OH

Inquiry: Specify measured GLP-1 Receptor Activation for HVEGTFTSDVSSYLEKEAAKEFIAWLVKGRG [Val^8-Lys^22-Glu^23-GLP-1(7-37)OH] .
Reply text: 0.35 fold of GLP-1(7-37)OH

Inquiry: Report measured GLP-1 Receptor Activation; entry is HGEGTFTSDVSSYLEGQAAKEFIEWLVKGRG [Gly^8-Glu^30-GLP-1(7-37)OH]
Reply text: 0.29 fold of GLP-1(7-37)OH

Inquiry: Given HVEGTFTSDVSSYLEGQAAKEFIAWLEKGRG [Val^8-Glu^33-GLP-1(7-37)OH] , respond with its GLP-1 Receptor Activation.
Reply text: 0.039 fold of GLP-1(7-37)OH

Inquiry: Report GLP-1 Receptor Activation, nothing else, for this binder: HVEGTFTSDESSYLEGQAAKEFIAWLVKGRG [Val^8-Glu^16-GLP-1(7-37)OH]
Reply text: 0.047 fold of GLP-1(7-37)OH
